Test system: GS strain of HHV-6A
assay-info: Efficacy against HHV-6A in HSB-2 cells with reduced serum
Format: cell-based
assay-setup: HSB2, HHV-6A in HSB-2 cells, 5% FBS; read-out: EC50
assay-metric: EC50 (µM)
# output: bare number, implied unit µM

{"columns": ["molecule", "EC50 [µM]"],
 "data": [
  ["Nc1ccn(C[C@@H](CO)OCP(=O)(O)O)c(=O)n1 [cidofovir]", 1.2]
]}

Would you kindly look at the next entry?
The recorded EC50 with GS strain of HHV-6A for CC(C)Nc1nc2cc(Cl)c(Cl)cc2n1[C@H]1O[C@@H](CO)[C@H](O)[C@@H]1O [maribavir] was 9
